- target.of.assay: human CD33 R122A (human, UniProt P20138 18-364)
- Sequence (P20138 18-364 R122A limits assumed): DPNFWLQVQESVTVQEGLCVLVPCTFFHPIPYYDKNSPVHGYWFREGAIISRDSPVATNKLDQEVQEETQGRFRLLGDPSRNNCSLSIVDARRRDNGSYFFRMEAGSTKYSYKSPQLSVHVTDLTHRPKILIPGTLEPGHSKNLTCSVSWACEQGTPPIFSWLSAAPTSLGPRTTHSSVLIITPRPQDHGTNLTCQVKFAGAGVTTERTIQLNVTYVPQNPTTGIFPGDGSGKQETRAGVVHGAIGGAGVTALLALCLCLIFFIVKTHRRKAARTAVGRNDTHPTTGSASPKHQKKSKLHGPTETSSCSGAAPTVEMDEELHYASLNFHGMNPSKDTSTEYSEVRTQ
- assay.explanation: flow cytometry on HEK293-T, alanine scan
observation.type: Mean % WT Binding (% WT binding)

binder	endpoint.unit	measured.number
Refmab #1 (antibody, V domains shown, The alanine scan used IgG or Fab; also called hP67.6) VH: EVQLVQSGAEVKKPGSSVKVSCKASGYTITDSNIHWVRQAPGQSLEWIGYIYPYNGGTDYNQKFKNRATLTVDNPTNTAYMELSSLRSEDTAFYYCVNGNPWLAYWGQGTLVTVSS VL: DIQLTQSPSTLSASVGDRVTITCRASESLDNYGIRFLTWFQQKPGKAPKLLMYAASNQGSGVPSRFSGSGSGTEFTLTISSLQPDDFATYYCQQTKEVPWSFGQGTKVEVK	% WT binding	107
Refmab #2 (antibody, V domains shown, The alanine scan used IgG or Fab) VH: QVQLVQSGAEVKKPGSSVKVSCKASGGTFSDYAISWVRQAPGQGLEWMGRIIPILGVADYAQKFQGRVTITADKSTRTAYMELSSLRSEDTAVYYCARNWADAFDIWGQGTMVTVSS VL: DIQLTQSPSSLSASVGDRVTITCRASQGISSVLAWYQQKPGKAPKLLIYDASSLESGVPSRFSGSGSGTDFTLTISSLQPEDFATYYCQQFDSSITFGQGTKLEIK	% WT binding	3.6
Refmab #3 (antibody, V domains shown, The alanine scan used IgG or Fab) VH: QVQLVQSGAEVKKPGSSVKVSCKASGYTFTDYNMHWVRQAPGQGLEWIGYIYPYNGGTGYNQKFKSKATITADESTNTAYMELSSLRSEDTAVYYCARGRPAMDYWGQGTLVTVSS VL: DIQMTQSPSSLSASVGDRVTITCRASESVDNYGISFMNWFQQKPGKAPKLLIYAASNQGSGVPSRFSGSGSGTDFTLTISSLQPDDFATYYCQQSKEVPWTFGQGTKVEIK	% WT binding	177

Reference source: patent US20260242735A1
